Tested system: Human GPR120 (Homo sapiens, UniProt Q5NUL3)
Construct: Ga16 (promiscuous G protein) fusion partner; expressed in transfected cells
Experiment: FLIPR assay: agonist-induced calcium mobilization in HEK293-GPR120-Ga16 cells
Format: cell-based
Condition notes: % enhancement of the test compound relative to a known compound; read-out: % Efficiency
Metric name: Emax (%)
Number only, in %; omit the unit.

Could you please provide reported Emax for CCn1c(-c2ccccc2)c(C)s/c1=N\c1ccc(S(=O)(=O)O)cc1 [Compound 3] ? Thanks!
85.6

Could you please provide reported Emax for CCn1c(-c2ccccc2NC)cs/c1=N\c1ccc(C(=O)O)cc1 [Compound 45] ? Thanks!
87.9

Could you please provide reported Emax for CCn1c(-c2ccccc2)cs/c1=N\c1ccc(C(=O)O)c(F)c1F [Compound 10] ? Thanks!
86.2

Could you please provide reported Emax for O=C(O)c1ccc(/N=c2\scc(-c3ccccc3)n2CC2CC2)cc1 [Compound 21] ? Thanks!
84.7

Could you please provide reported Emax for CCn1c(-c2cccc(OCCOC)c2)cs/c1=N\c1ccc(C(=O)O)cc1 [Compound 20] ? Thanks!
77.1

====

Tested system: Human GPR120 (Homo sapiens, UniProt Q5NUL3)
Construct: Ga16 (promiscuous G protein) fusion partner; expressed in transfected cells
Experiment: FLIPR assay: agonist-induced calcium mobilization in HEK293-GPR120-Ga16 cells
Assay type: cell-based
Condition notes: % enhancement of the test compound relative to a known compound; read-out: % Efficiency
Metric name: Emax
Just so you know, I need the unit written after the number.

Please review the entries below; each comes with its answer.
CCn1c(-c2cccc3ccccc23)cs/c1=N\c1ccc(C(=O)O)cc1 = 107%
COc1ccc(-n2cc(-c3cccc(C(=O)O)c3)nn2)cc1 = 68.9%
COc1ccc(-c2nc(-c3cccc(C(=O)O)c3)no2)cc1 = 60.4%
CCn1c(-c2ccccc2)cs/c1=N\c1ccc(-c2nn[nH]n2)cc1 = 98.4%

Let's switch to this molecule now.
Please look at CCn1c(-c2cccc(Cl)c2)cs/c1=N\c1ccc(S(=O)(=O)O)cc1 and tell me its recorded Emax on Human GPR120 (Homo sapiens, UniProt Q5NUL3).
114%

====

Listing of entries alongside the reported Emax.
Tested system: Human GPR120 (Homo sapiens)
Construct: Ga16 (promiscuous G protein) fusion partner; expressed in transfected cells
Experiment: FLIPR assay: agonist-induced calcium mobilization in HEK293-GPR120-Ga16 cells
Type: cell-based
Condition notes: % enhancement of the test compound relative to a known compound; read-out: % Efficiency
Number only, in %; omit the unit.

Please review the entries below; each comes with its answer.
CCn1c(-c2cccc(OCc3ccccn3)c2)cs/c1=N\c1ccc(C(=O)O)cc1 [Compound 27] = 65.9
CCCn1c(-c2ccccc2)cs/c1=N\c1ccc(C(=O)O)cc1 [Compound 16] = 96.9

Please look at Cc1ccc(-c2cn(-c3cccc(C(=O)O)c3)nn2)cc1 [Compound 57] and tell me its recorded Emax on Human GPR120 (Homo sapiens).
53.7

====

Tested system: Human GPR120 (Homo sapiens)
Construct: Ga16 (promiscuous G protein) fusion partner; expressed in transfected cells
Sequence (Q5NUL3 with tags, fused parts or gaps): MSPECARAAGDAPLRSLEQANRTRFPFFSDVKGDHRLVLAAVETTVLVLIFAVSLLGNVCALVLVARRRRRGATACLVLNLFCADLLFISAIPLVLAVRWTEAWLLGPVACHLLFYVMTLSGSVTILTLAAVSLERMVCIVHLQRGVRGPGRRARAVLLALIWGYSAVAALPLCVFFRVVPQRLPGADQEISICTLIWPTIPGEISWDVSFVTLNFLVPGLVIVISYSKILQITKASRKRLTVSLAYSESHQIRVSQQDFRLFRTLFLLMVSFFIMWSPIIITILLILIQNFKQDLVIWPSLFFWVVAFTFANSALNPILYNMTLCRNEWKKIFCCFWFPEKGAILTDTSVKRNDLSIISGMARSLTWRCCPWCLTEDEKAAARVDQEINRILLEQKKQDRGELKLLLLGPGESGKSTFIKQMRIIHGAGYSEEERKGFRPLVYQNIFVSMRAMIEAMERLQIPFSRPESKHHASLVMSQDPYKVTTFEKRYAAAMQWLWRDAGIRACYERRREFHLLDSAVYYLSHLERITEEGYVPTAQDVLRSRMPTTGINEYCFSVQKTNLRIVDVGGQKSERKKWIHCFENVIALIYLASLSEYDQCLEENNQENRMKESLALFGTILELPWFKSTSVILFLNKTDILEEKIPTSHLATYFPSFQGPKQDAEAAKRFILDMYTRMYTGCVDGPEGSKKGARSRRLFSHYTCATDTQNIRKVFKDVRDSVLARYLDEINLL
Experiment: FLIPR assay: agonist-induced calcium mobilization in HEK293-GPR120-Ga16 cells
Type: cell-based
Condition notes: % enhancement of the test compound relative to a known compound; read-out: % Efficiency
Description: Human GPR120 stable cell-line was generated in HEK293 cells. GPR120 (Accession number BC101175) is fused to a promiscuous G protein, Ga16. The expression plasmid is transfected into HEK293 cells using Fugene6 following manufacturer's instruction. Stable cell-lines are generated following drug selection. FLIPR (Fluorimetric Imaging Plate Reader, Molecular Devices) assays are performed to measure agonist-induced calcium mobilization in the GPR120-expressing cells. […]
Returns true (1) if the recorded Emax is greater than or equal to 80%, and false (0) otherwise.

Observe how each entry below is paired with its result.
CC(C)c1ccc(-n2cc(-c3cccc(C(=O)O)c3)nn2)cc1 = false (0)
CCn1c(-c2cc(C(F)(F)F)cc(C(F)(F)F)c2)cs/c1=N\c1ccc(S(=O)(=O)O)cc1 = true (1)
CCn1c(-c2ccccc2[N+](=O)[O-])cs/c1=N\c1ccc(C(=O)O)cc1 = false (0)
CCn1c(-c2ccccc2Oc2ccccc2)cs/c1=N\c1ccc(C(=O)O)cc1 = true (1)
COc1ccc(-c2noc(-c3cccc(C(=O)O)c3)n2)cc1 = false (0)

Textbook exercise: given the entry CCn1c(-c2cc(Cl)ccc2Cl)cs/c1=N\c1ccc(S(=O)(=O)O)cc1 , state whether its Emax is greater than or equal to 80%.
true (1)

Textbook exercise: given the entry CCn1c(-c2ccccc2OC(F)(F)F)cs/c1=N\c1ccc(S(=O)(=O)O)cc1 , state whether its Emax is greater than or equal to 80%.
true (1)

Textbook exercise: given the entry O=C(O)c1ccc(/N=c2\scc(-c3ccccc3)n2CC(F)(F)F)cc1 , state whether its Emax is greater than or equal to 80%.
false (0)

====

Listing of entries alongside the reported EC50.
Tested system: Human GPR120 (Homo sapiens)
Construct: Ga16 (promiscuous G protein) fusion partner; expressed in transfected cells
Sequence (Q5NUL3 with tags, fused parts or gaps): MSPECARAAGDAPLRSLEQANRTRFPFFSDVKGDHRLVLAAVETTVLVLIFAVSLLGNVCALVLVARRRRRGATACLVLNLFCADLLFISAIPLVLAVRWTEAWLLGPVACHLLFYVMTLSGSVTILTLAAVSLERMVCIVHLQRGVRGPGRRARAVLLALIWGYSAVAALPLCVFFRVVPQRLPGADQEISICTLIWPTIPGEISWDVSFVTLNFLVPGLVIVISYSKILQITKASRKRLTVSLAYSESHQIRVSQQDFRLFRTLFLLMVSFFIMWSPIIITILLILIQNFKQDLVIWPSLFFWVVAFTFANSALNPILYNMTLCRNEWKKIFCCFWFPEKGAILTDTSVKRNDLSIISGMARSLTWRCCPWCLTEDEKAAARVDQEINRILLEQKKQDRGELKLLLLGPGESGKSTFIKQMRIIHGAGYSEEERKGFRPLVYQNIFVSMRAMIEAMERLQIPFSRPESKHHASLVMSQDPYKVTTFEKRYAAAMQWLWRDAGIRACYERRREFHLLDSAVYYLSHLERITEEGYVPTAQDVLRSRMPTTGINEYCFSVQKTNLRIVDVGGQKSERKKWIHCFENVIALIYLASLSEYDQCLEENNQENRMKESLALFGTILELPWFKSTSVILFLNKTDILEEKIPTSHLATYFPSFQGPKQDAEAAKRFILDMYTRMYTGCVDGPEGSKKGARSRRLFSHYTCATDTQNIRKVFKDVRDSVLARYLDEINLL
Experiment: FLIPR assay: agonist-induced calcium mobilization in HEK293-GPR120-Ga16 cells
Assay type: cell-based
Condition notes: GPR120 activation, calcium mobilization, HEK293-GPR120-Ga16 cells; read-out: EC50

Please look at CCn1c(-c2cccc(Cl)c2)cs/c1=N\c1ccc(S(=O)(=O)O)cc1 [Compound 31] and tell me its recorded EC50 on Human GPR120 (Homo sapiens).
78 nM

====

Listing of entries alongside the reported EC50.
Tested system: Human GPR120 (Homo sapiens)
Construct: Ga16 (promiscuous G protein) fusion partner; expressed in transfected cells
Sequence (Q5NUL3 with tags, fused parts or gaps): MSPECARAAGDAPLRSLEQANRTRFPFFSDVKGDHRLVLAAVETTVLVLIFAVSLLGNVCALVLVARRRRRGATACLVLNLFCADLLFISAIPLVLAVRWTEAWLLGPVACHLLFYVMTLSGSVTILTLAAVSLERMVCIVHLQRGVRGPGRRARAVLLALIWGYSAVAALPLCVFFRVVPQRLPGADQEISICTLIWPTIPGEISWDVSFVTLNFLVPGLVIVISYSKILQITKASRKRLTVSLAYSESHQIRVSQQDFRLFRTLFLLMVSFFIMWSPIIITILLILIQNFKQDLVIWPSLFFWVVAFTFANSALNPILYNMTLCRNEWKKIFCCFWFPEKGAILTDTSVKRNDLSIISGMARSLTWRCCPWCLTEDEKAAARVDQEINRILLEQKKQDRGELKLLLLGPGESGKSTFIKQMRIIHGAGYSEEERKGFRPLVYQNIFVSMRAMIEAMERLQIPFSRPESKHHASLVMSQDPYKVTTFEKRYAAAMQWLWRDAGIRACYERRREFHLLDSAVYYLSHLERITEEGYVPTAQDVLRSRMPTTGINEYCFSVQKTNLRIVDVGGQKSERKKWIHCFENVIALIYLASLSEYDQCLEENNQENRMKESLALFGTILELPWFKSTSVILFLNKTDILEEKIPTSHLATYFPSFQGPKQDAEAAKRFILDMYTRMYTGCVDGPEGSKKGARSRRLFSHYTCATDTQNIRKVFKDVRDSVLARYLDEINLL
Experiment: FLIPR assay: agonist-induced calcium mobilization in HEK293-GPR120-Ga16 cells
Format: cell-based
Condition notes: GPR120 activation, calcium mobilization, HEK293-GPR120-Ga16 cells; read-out: EC50 Range

Please review the entries below; each comes with its answer.
CC(C)c1ccc(-n2cc(-c3cccc(C(=O)O)c3)nn2)cc1 [Compound 64] = 500 to 1000 nM
COc1ccc(-c2nc(-c3cccc(C(=O)O)c3)no2)cc1 [Compound 56] = 250 to 500 nM
CCn1c(-c2ccccc2)cs/c1=N\c1ccc(C(=O)O)c(F)c1 [Compound 14] = 100 to 250 nM

Could you please provide reported EC50 for CCn1c(-c2ccccc2Cl)cs/c1=N\c1ccc(C(=O)O)cc1 [Compound 34] ? Thanks!
100 to 250 nM

Could you please provide reported EC50 for O=C(O)c1ccc(/N=c2\scc(-c3ccccc3)n2CC(F)F)cc1 [Compound 23] ? Thanks!
100 to 250 nM
